Molecular target: T1, recombinant human IL-17A-mFc protein (human, UniProt Q16552 24-155, Biotinylated before the blocking assays of Examples 9 and 12 (sites not given); disulfide-linked dimer through IL-17A and the Fc.)
T1 construct: also called recombinant fusion protein IL-17A-mFc
T1 sequence: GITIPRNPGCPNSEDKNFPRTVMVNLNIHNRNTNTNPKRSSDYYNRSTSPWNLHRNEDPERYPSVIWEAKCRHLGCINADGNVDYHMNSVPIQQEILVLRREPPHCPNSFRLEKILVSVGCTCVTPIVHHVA
Assay: competitive FACS: blocks binding of biotinylated human IL-17A-mFc (3 µg/mL) to IL-17RA on 293F cells
Protocol: The blocking of binding of IL-17A to IL-17RA on cells was detected by a competitive cell-based flow cytometry (FACS) assay. Briefly, chimeric antibody dilutions of different concentrations (3-fold diluted from 10 μg/mL) were mixed with the pre-biotinylated human IL-17A-mFC (3 μg/mL) obtained in Example 1, and incubated at room temperature for 30 minutes. […] After 3 washes with PBS, 5 μg/mL of anti-mouse IgG was added and the system was incubated at room temperature for 30 minutes.
So I've got a bunch of binders here, and I need their IC50 values.
Field: numeric (µg/mL). Do not append units.

Request the reported IC50 associated with chimeric antibody ch1 (antibody, V domains shown) VH: QIQLVQSGPELKKPGETVKISCKASGYIFTNYGMNWMKQAPGKGLKWMGWINDHTGEPTYADDFKGRFAFSLETSASTAYLQINNLKKEDTATYFCANYGFGYFDYWGQGTTLTVSS VL: DVVMTQTPLSLPVSLGDQASISCRSSQSLVHSNGNSYLHWYLQKPGQSPKLLIYKVSNRFSGVPDRFSGSGSGTDFTLKISRVEAEDLGVYFCSQSTHVPYTFGGGTKLEIK
4.46

For the binder chimeric antibody ch7 (antibody, V domains shown) VH: QVQLKESGPGLVAPSQSLSITCTVSGFSLINYDIHWLRQPPGKGLEWLGVIWAGGRTHSDSALMSRLSISKDNSKSQVFLNVHSLRPEDTAIYYCAREGGDYYKYLDFWGQGTTLTVSS VL: DVKMTQSPSSMYASLGERVTITCKASHDINSYLSWFQQKPGKSPKTLIYRANGLVDGVPSRFSGSGSGQDYSLTISSLEYEDMGVYYCLQYEMLPLTFGAGTKLELK , what IC50 is on record?
1.22

# IC50 lookup, item chimeric antibody ch2 (antibody, V domains shown) VH: QIQLVQSGPELKKPGETVKISCKASGYIFTNYGMNWMKQAPGKGLKWMGWINDHTGEPTYADDFKGRFAFSLETSASTAYLQINNLKKEDTATYFCANYGFGYFDYWGQGTTLTVSS VL: DVVVTQTPLSLPVSLGDQASISCRSGQSLVHSNGHTYFHWYLQKPGQSPKLLIYKVSNRFSGVPDRFSGSGSGTDFTLKISRVEAEDLGIYFCSQSTHVPYTFGGGTKLEIK
3.15

Please look up its IC50: chimeric antibody ch16 (antibody, V domains shown) VH: DVQLQESGPGLVKPSQSLSLTCTVTGYSITSDYAWSWIRQFPGNKLEWMAFISYSGPTSYNPSLKSRVSITRDTSKNQFFLQLKSVTTEDTATYYCARGGDGDSFDYWGQGTTLTVSS VL: DVLMTQTPLSLPVSLGDQASISCRSSQSIVHSNGNTYLDWYLQKPGQSPKLLIYKVSNRFSGVPDRFSGSGSGTSFTLKISRVEAEDLGVYYCFQGSHFPTFGGGTKLEIK
1.45
